Please provide measured OD450 for the entries that follow.
# assayed-target: T1, human MSLN-FL-his protein (human, UniProt Q13421 296-580)
# T1 construct: also called hMSLN-FL-his; human MSLN full-length protein; not shown: His tag
# T1 sequence (Q13421 other isoform, or with tags, fused parts or gaps): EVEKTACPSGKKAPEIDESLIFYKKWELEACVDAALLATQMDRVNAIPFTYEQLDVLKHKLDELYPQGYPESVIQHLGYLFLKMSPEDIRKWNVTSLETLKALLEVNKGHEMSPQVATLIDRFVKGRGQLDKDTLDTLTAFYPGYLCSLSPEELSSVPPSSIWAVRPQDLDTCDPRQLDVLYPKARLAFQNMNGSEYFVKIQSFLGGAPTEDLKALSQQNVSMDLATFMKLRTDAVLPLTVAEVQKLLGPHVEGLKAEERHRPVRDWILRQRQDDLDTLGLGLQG
# procedure-summary: ELISA, coated antigen; antibody 0.1 nM
// no unit string in output, number only

Kindly note the recorded OD450 for S009-F1.35.24 human-murine chimeric antibody (antibody, human IgG1, kappa, V domains shown, Chimeric IgG1/kappa) VH: EVQLQQSEPELVKPGASVRISCKASGYSFTDYYMHWVKQSPENRLEWIGEINPSTGGTSYNPKFKDKATLTVDKSSSTAYMQLKSLTSEESAVYYCTRYHYYGSSSYVMDYWGQGTSVTVSS VL: QIVLTQSPAILSASPGERVTMTCSASSSVYHMHWFQQKSGTSPKRWVYDTSKLASGVPARFSGSGSGTSYSLTISSMEAEDAATYYCQHWRTNPLTFGAGTKLELKR , which is 1.62

Kindly note the recorded OD450 for S009-F1.25.10 human-murine chimeric antibody (antibody, human IgG1, kappa, V domains shown, Chimeric IgG1/kappa) VH: EVQLQQSGPELVKPGASLKISCKASGYSFTDYTMNWVKQSHGKNLEWIGLFNPYNGGISYNQKFKGKATLTVDKSSNTAYMELLSLTSDDSAVYFCARDGRGGFYAMDYWGQGTSVTVSS VL: DIQMTQTTSSLSASLGDRVTISCRASQDISIYLNWYQQKPDGPVKLLIYYTSRLHSGVPSRFSGSGSGTDFSLTISNLEQEDIATYFCQQGYTLPPWTFGGGTKLEIKR , which is 1.67

Kindly note the recorded OD450 for S009-F1.62.9 human-murine chimeric antibody (antibody, human IgG1, kappa, V domains shown, Chimeric IgG1/kappa) VH: EVQLQQSGADLVKPGASVKLSCTVFGLNFKDTFMHWVRQRPEQGLEWIGRIDPANDNSIYGPKFQDKATITADTSSNTAYLHLSSLTSEDTAVYYCLYFDNWGHGTTLTVSS VL: DIVMTQAASSEPVTPGESVSISCRSDKSLLHSNGHNYLYWFLQRPGQSPHLLIYRMSNLASGVPDRFSGSGSGTAFTLRISRVEAEDVGVYYCMQHLEYPLTFGAGTKLELKR , which is 1.79

Kindly note the recorded OD450 for S009-F1.57.1 human-murine chimeric antibody (antibody, human IgG1, kappa, V domains shown, Chimeric IgG1/kappa) VH: EAQLQQSGAVFVKPGASVKLSCTASGFSSKDIFLHWVKQRPEQGLEWIGRIDPASDNTIYDPKFQDRATITSDRSSNTAYLQFSSLTSEDTAVYFCLYFDFWGQGTTLTVSS VL: DIVMTQATPSISVTPGESVSISCRSSESLLHSNGNTYLYWFLQRPGQSPQLLIYRMSNLASGVPDRFSVSGSGTAFTLRISRVEAEDVGVYYCMQHLEYPLTFGAGTKLELKR , which is 0.82

Kindly note the recorded OD450 for S009-F1.56.1 human-murine chimeric antibody (antibody, human IgG1, kappa, V domains shown, Chimeric IgG1/kappa) VH: EVQLQQSGAEVVKPGASVKLSCTASGFNIRHTYMHWVKQRPEQGLEWIGRIDPANGNTEYDPKFQGKATITADTSSNTAYLQLSSLTSEDTAVYYCARDGWYIDVWGAGTTVTVSS VL: DIVMSQSPSSLAVSVGEKVTMSCKSSQSLLYSNNQKNYLAWYQQKPGQSPKLLIYWASTRESGVPDRFTGSGSGTDFTLTISSVKAEDLAVYYCQRYYSYPWTFGGGTKLEIKR , which is 1.83

Kindly note the recorded OD450 for S009-F1.59.1 human-murine chimeric antibody (antibody, human IgG1, kappa, V domains shown, Chimeric IgG1/kappa) VH: EVKLEGSGGGLVQPGGSMMLSCVATGFTFSSYWMNWVRQSPDRGLEWVAEIRLKSNGFAAFYAESVKGRFTISRDDSKSSVYLQMNNLRTEDTGIYYCTYFVHWGQGILVTVSE VL: DIVLTQSPTSLAVSLGQRATISCRTSESVEYFGTILIQWYQQKPGQPPKLLIFGASNVESGVPARFSGSGSGTDFSLNIHPVEEEDIAMYFCQQNRKVPYTFGGGTTLELKR , which is 1.76

Kindly note the recorded OD450 for S009-F1.2.12 human-murine chimeric antibody (antibody, human IgG1, kappa, V domains shown, Chimeric IgG1/kappa) VH: QVQLKQTGPGLVQPSQSLSITCTVSGFSLTNYAVHWVRQSPGKGLEWLGVIWSGGATDYNTVFISRLSISKDNSKSQVFFKVNSLQVDDTAIYYCARTGSGYAMDYWGQGTSVTVSS VL: DIVLTQSPATLSVTPGDRVSLSCRTSHNVNTYLHWYQQKSHESPRLLIKYASQSISEIPSRFSGSGSGTNFTLSINSVETEDFGMYFCHQTNRWPLTFGAGTKLELKR , which is 1.75
